The reported numbers originate from paper PMC12731232.

Assay: MTT cell viability assay, MRC-5
Conditions: human, MRC-5 normal lung fibroblasts
recorded.metric: IC50 at 24 h (µM)

1) COc1cccc2c1C(=O)c1c(O)c3c(c(O)c1C2=O)C[C@@](O)(C(=O)CO)C[C@@H]3O[C@H]1C[C@H](N)[C@H](O)[C@H](C)O1 [Doxorubicin, doxorubicin, reference compound]; 44
